Tested on: LOX IMVI
Test: NCI tumour cell line growth inhibition, 48 h
Calls of active or inactive are those of the source. Cut-off read from the data, not from the text of the source: active = GI50 up to about 1.1 µM and inactive = higher.
observed property: GI50

O=C(/C=C/c1cccc(Br)c1)c1ccc(Cl)cc1; 12.6 µM (inactive)
COc1ccccc1/C=C/C1=NN(c2cccc(S(=O)(=O)O)c2)C2(C1)C(Cl)C(=O)N2c1nc2ccccc2s1 (stereo not drawn); 29.7 µM (inactive)
O=C(/C(Cl)=C/c1ccccc1)c1ccccc1; 2.11 µM (inactive)

The recorded GI50 for c1ccc(-c2cs[s+]c2)cc1 is > 100 µM (inactive)

The recorded GI50 for CC(=O)N/N=C1/CC[C@@]2(C)C(=CC[C@H]3C4CCC(C(C)CCCC(C)C)[C@@]4(C)CCC32)C1(C)C (stereo partly drawn) is 3.94 µM (inactive)

The recorded GI50 for O=C(O)C12CCCCC1CCCC2 (stereo not drawn) is > 100 µM (inactive)
